// provenance: paper PMC10581193

MIC: recorded values
Test system: M. tuberculosis H37Ra
Experiment: microbe, parasite or virus in culture
Format: cell-based, Mycobacterium tuberculosis
Settings: Mycobacterium tuberculosis, H37RA, read-out: MIC against H37Ra
Give the value in µg/mL but do not write µg/mL after it.

Previously resolved entries follow.
>>> recorded_measurement("Cc1nc(C)c(CN2CCOc3c(C(=O)NCC(F)(F)F)cc(C4CC4)cc32)nc1C")
0.18
>>> recorded_measurement("Cc1cc(C(=O)NCC(F)(F)F)c2c(c1)N(Cc1nc(C)c(C)nc1C)CCO2")
100
>>> recorded_measurement("Cc1cc(C(=O)NC2CCCC2)c2c(c1)N(Cc1nc(C)c(C)nc1C)CCO2")
1.56

# input for lookup
Challenge: What value of MIC has been reported for the following molecule? Cc1nc(C)c(CN2CCOc3c(C(=O)NCC(F)F)cc(Br)cc32)nc1C
Response given: 0.39

----------
Test system: M. tuberculosis H37Ra
Test: microbe, parasite or virus in culture
Type: cell-based, Mycobacterium tuberculosis
Conditions: Mycobacterium tuberculosis, H37RA, read-out: MIC against H37Ra
measurement.type: MIC

Previously resolved entries follow.
>>> recorded_measurement("COc1ccc(CN2CCOc3c(C(=O)NCC(F)(F)F)cc(C4CC4)cc32)cc1F")
"> 25 µg/mL"
>>> recorded_measurement("Cc1nc(C)c(CN2CCOc3c(C(=O)NCC(F)(F)F)cc(-c4ccccc4)cc32)nc1C")
"> 25 µg/mL"
>>> recorded_measurement("Cc1cc(C(=O)NCCO)c2c(c1)N(Cc1nc(C)c(C)nc1C)CCO2")
"> 100 µg/mL"

# input for lookup
Challenge: What value of MIC has been reported for the following molecule? Cc1cc(C(=O)NCC(F)F)c2ccn(Cc3nc(C)c(C)nc3C)c2c1
Response given: > 6.25 µg/mL
